Method description: RP, Phenomenex Synergi Polar-RP, 100 × 3 mm, 2.5 µm, 40 °C, 0.4 mL/min, estimated dead time 1.1 min; A: water + 1 mM ammonium fluoride; B: methanol + 1 mM ammonium fluoride; C: acetonitrile; D: 50% isopropanol + 50% acetone; gradient (min/%B/%C/%D) 0/5/0/0 2/5/0/0 8/95/0/0 12/80/15/0 19/25/70/0 19.5/0/25/70 21.5/0/25/70 22.5/0/25/0 23/5/0/0
Experimental conditions: stereoisomer not certain
# LC retention time values compiled below
State the answer as a number, implicitly in min.

> print(dat)
                                   compound  units.symbol  assay.value
1  Oc1c(Br)cc(Cl)cc1Cc1cc(Cl)cc(Br)c1O [Bromochlorophen]           min         11.2
2  COCCN(C(=O)C(=O)O)c1c(C)cccc1C [Dimethachlor OA]           min          7.5
3  CC(C)(Oc1ccc(Cl)cc1)C(=O)O [Clofibric acid]           min         8.57

Prompt line: # lookup: LC retention time of Oc1ccc(Cc2ccc(O)cc2)cc1 [Bisphenol F]
Response line: 9.94

Prompt line: # lookup: LC retention time of CC(C)(c1ccc(O)cc1)c1ccc(O)cc1 [Bisphenol A]
Response line: 10.3

Prompt line: # lookup: LC retention time of O=C(O)COc1ccc(Cl)cc1Cl [24-Dichlorophenoxyacetic acid]
Response line: 8.06

Prompt line: # lookup: LC retention time of Oc1cc(Cl)ccc1Oc1ccc(Cl)cc1Cl [Triclosan]
Response line: 11.5

Prompt line: # lookup: LC retention time of N#Cc1nn(-c2c(Cl)cc(C(F)(F)F)cc2Cl)c(N)c1S(=O)C(F)(F)F (centres undefined) [Fipronil]
Response line: 10.9

Prompt line: # lookup: LC retention time of CS(=O)(=O)c1ccc(C(=O)C2C(=O)CCCC2=O)c(Cl)c1 [Sulcotrione]
Response line: 7.69

* * *

# LC retention time values compiled below
Method description: RP, Waters ACQUITY UPLC BEH C18, 100 × 1 mm, 1.7 µm, 50 °C, 0.3 mL/min, estimated dead time 0.17 min; A: water + 0.1% formic acid + 20 mM ammonium formate; B: methanol + 0.1% formic acid + 20 mM ammonium formate; gradient (min/%B) 0/0 15/100 21/100 22/0 30/0
Experimental conditions: stereoisomer not certain
State the answer as a number, implicitly in min.

Example cases with answers are listed next.
> print(dat)
                                   compound  units.symbol  assay.value
1  CCCNC(C)C(=O)Nc1ccccc1C (stereo not given) [Prilocaine]           min         8.85
2  CCNc1nc(NC(C)CC)[nH]c(=O)n1 (stereo not given) [Sebuthylazine-2-hydroxy]           min         9.91
3  Nc1cc(Cl)c(S(N)(=O)=O)cc1S(N)(=O)=O [4-Amino-6-chloro-1,3-benzenedisulfonamide]           min          3.6
4   COC(=O)C(C)=COP(=S)(OC)OC [Methacrifos]           min         12.1

Now look at this entry.
Prompt line: # lookup: LC retention time of OCCN1CCN(CCC=C2c3ccccc3Sc3ccc(C(F)(F)F)cc32)CC1 [Flupentixol]
Response line: 14.7
